Attribution: ChEMBL document CHEMBL1128241

Test: Partition coefficient (logP)
Type: physicochemical
Conditions: octanol/water; read-out: logP
endpoint: logP
// response body must contain only the number

Note to self: logP recorded for ClC(Br)Br [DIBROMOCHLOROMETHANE] was 2.48

Given item `ClCCCBr` , the value recorded as its logP is 1.88

logP reported for this compound `ClCC(Cl)(Cl)Cl` : 3.05

// field: logP; key: `CC(C)=CCl` ; value = 1.89

Record Cl/C=C/CCl [1,3-DICHLOROPROPENE] , field logP: 1.19

Data point: CC(Cl)C(C)Cl (centres undefined) ; logP = 2.56

Record summary for `ClCCBr` : reported logP = 1.62

logP in this record for CCBr [BROMOETHANE] : 1.63

Entry `ClC(Cl)(Cl)Br` , logP reported as 3.1

###

Test: Partition coefficient (logP)
Assay type: physicochemical
Details: octanol/water; read-out: logP
endpoint: logP

The molecule listed as `CCCCCBr` has a reported logP of 3.25

Form field logP, entry `CCCCCCCCCl` : 4.85

The molecule identified as `ClCBr` registered its logP at 1.4

logP measured on ClCCl [METHYLENE CHLORIDE] = 1.26

Summary for this molecule, CC(Cl)CCCl (stereo not given) : logP is 2.28

###

Test: Partition coefficient (logP)
Type: physicochemical
Conditions: octanol/water; read-out: logP
Please respond with class 1 when measured logP is strictly beneath 2, and with class 0 in all other cases.

Q: logP under 2? Item: CCC(C)Cl (stereo not drawn)
Result: class 0

Q: Lab note: confirm whether the reported logP for this compound is below 2, equality not counting. compound: `CC(C)(C)Cl`
Result: class 0

Q: Given the entry `CCCCCCCCBr` , would its reported logP be below 2?
Result: class 0

Q: # TODO verify logP < 2 strictly for this compound: ClC(Cl)(Cl)Cl [CARBON TETRACHLORIDE]
Result: class 0

Q: Report whether reported logP is lower than 2 (strictly) for `FC(Cl)(Br)Br`
Result: class 0

Q: Determine whether this compound shows logP lower than 2 (ties excluded): BrC(Br)Br [BROMOFORM]
Result: class 0

Q: Regarding CC(Br)CCl (stereo not drawn) , kindly confirm whether its logP is beneath 2.
Result: class 0

Q: Please state whether logP is below 2 for `Cl/C=C/Cl`
Result: class 1

Q: Check if logP falls below 2 for `C/C(Cl)=C/Cl` .
Result: class 1

Q: Please check: logP for `ClCC=C(Cl)Cl` , strictly under 2 or not?
Result: class 1

Q: Could you please tell me whether logP recorded for `CC(C)(C)Br` is less than 2?
Result: class 0

Q: Bench note: check whether `CCCCBr` shows logP below 2
Result: class 0

Q: Is it true that logP reported for `ClC(Cl)Br` is less than 2?
Result: class 0

Q: Please state whether logP is below 2 for `CC(C)(Cl)Cl`
Result: class 0

Q: Quick check: logP of `CC(C)CCBr` under 2?
Result: class 0

Q: Would you kindly verify if logP of `CC(C)CBr` is strictly less than 2?
Result: class 0

###

Assay: Partition coefficient (logP)
Assay type: physicochemical
Details: octanol/water; read-out: logP
endpoint: logP
Lab note: record the figure alone, no unit after it.

// logP lookup, compound = `ClC(Cl)C(Cl)Cl` , result: 2.66

According to the records, this compound `CC(C)=CBr` displays logP of 1.8

Record `CC(Cl)Cl` . Reported logP: 1.8

logP reported for this compound `C=C(Cl)Cl` : 1.21

Looking up `CCCCCCCl` , I see its logP listed as 3.65

Recorded logP (compound `ClCCCCl` ): 1.74

The value of logP measured for the compound `CCCCCCl` turned out to be 3.11

get_value(item= CCC(C)CBr (stereo not given) , readout=logP) returns 3.12

The reported logP of the compound `ClCCCCBr` was 2.42

Entry `CCC(C)(C)Br` , logP reported as 2.99

###

Assay: Partition coefficient (logP)
Format: physicochemical
Details: octanol/water; read-out: logP
Kindly supply the reported logP values for the records listed here.
API doc: respond with a numeric literal and nothing else, no unit.

Field logP (entry `CC(Cl)(Cl)Cl` ) reads 2.5

For this molecule ( `ClCC(Cl)CCl` ), measured logP is 2.01

Given item `FC(Cl)(Cl)Cl` , the value recorded as its logP is 2.29

The molecule listed as CCC(C)Br (stereo not drawn) has a reported logP of 2.71

Data point: `ClC(Cl)(Cl)C(Cl)(Cl)Cl` ; logP = 4.62

Entry `CC(C)CCl` — recorded logP = 2.44

Item: `C=C(C)CCl` | logP: 1.89

// `C=C(Cl)CCl` : logP value = 1.75
